- Test system: FU97 (Gastric Carcinoma);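 note: after 72 h of two-drug dosing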
- MEASUREMENT PROTOCOL: Bliss excess, mean over the matrix (fraction); higher = more synergy
MEASURED METRIC: Bliss excess
Answers are plain numbers.

Answered cases to consult:
CN(CCO)CC[C@H](CSc1ccccc1)Nc1ccc(S(=O)(=O)NC(=O)c2ccc(N3CCC([C@@H](O)c4ccccc4-c4ccc(Cl)cc4)CC3)cc2)cc1S(=O)(=O)C(F)(F)F [AZD4320] + Cc1cc2ncnn2cc1Nc1ncc2c(n1)n(C1CCOCC1)c(=O)n2C [AZD7648] (first compound max 1 µM, 7x7, partner max 10 µM)
-0.0375
CN(CCO)CC[C@H](CSc1ccccc1)Nc1ccc(S(=O)(=O)NC(=O)c2ccc(N3CCC([C@@H](O)c4ccccc4-c4ccc(Cl)cc4)CC3)cc2)cc1S(=O)(=O)C(F)(F)F [AZD4320] + Nc1ccn([C@@H]2O[C@H](CO)[C@@H](O)C2(F)F)c(=O)n1 [Gemcitabine] (first compound max 1 µM, 7x7, partner max 0.3 µM)
0.0132
Cc1nc(-c2cn3c(n2)-c2ccc(-c4cnn(C(C)(C)C(N)=O)c4)cc2OCC3)n(C(C)C)n1 [Taselisib] + O=C(Nc1ccc2[nH]nc(-c3ccncc3)c2c1)[C@@H]1CCN(CC(=O)N2CCN(c3ccc(-c4ncccn4)cc3)CC2)C1 [SCH772984] (first compound max 10 µM, 7x7, partner max 5 µM)
0.0139
CC1(C)CCC(CN2CCN(c3ccc(C(=O)NS(=O)(=O)c4ccc(NCC5CCOCC5)c([N+](=O)[O-])c4)c(Oc4cnc5[nH]ccc5c4)c3)CC2)=C(c2ccc(Cl)cc2)C1 [Venetoclax] + CN(C)CCCOc1ccc(-c2ccc3ncc4c(c3c2)n(C2CCOCC2)c(=O)n4C)cn1 [AZD0156] (first compound max 1 µM, 7x7, partner max 1 µM)
-0.0293

For each of the compounds below, state Bliss excess.
1. O=C(c1cc(Cc2n[nH]c(=O)c3ccccc23)ccc1F)N1CCN(C(=O)C2CC2)CC1 [Olaparib] + CC1(C)CCC(CN2CCN(c3ccc(C(=O)NS(=O)(=O)c4ccc(NCC5CCOCC5)c([N+](=O)[O-])c4)c(Oc4cnc5[nH]ccc5c4)c3)CC2)=C(c2ccc(Cl)cc2)C1 [Venetoclax] (first compound max 10 µM, 7x7, partner max 1 µM)
2. CS(=O)(=O)CCNCc1ccc(-c2ccc3ncnc(Nc4ccc(OCc5cccc(F)c5)c(Cl)c4)c3c2)o1 [Lapatinib] + Cn1cnc2c(F)c(Nc3ccc(Br)cc3Cl)c(C(=O)NOCCO)cc21 [Selumetinib] (first compound max 10 µM, 7x7, partner max 10 µM)
3. CN(CCO)CC[C@H](CSc1ccccc1)Nc1ccc(S(=O)(=O)NC(=O)c2ccc(N3CCC([C@@H](O)c4ccccc4-c4ccc(Cl)cc4)CC3)cc2)cc1S(=O)(=O)C(F)(F)F [AZD4320] + C[C@@H]1COCCN1C2=NC(=NC(=C2)C3(CC3)[S@](=N)(=O)C)C4=C5C=CNC5=NC=C4 [AZD6738] (first compound max 1 µM, 7x7, partner max 10 µM)

**Result**
-0.0322
-0.0116
-0.0215

Provide reported Bliss excess for each item, in the same order as listed.
1. CN(C)CCCOc1ccc(-c2ccc3ncc4c(c3c2)n(C2CCOCC2)c(=O)n4C)cn1 [AZD0156] + C[C@@H]1COCCN1C2=NC(=NC(=C2)C3(CC3)[S@](=N)(=O)C)C4=C5C=CNC5=NC=C4 [AZD6738] (first compound max 1 µM, 7x7, partner max 10 µM)
2. CCN(CCO)CCCOc1ccc2c(Nc3cc(CC(=O)Nc4cccc(F)c4)[nH]n3)ncnc2c1 [AZD2811] + C=CCn1c(=O)c2cnc(Nc3ccc(N4CCN(C)CC4)cc3)nc2n1-c1cccc(C(C)(C)O)n1 [AZD1775] (first compound max 1 µM, partner max 1 µM)
3. O=C(c1cc(Cc2n[nH]c(=O)c3ccccc23)ccc1F)N1CCN(C(=O)C2CC2)CC1 [Olaparib] + Cc1c2c(nn1C)CSCc1cc(n(C)n1)CSc1cc(c3ccccc3c1)OCCCc1c(C(=O)O)n(C)c3c-2c(Cl)ccc13 [AZD5991] (first compound max 10 µM, 7x7, partner max 1 µM)
4. Cc1c2c(nn1C)CSCc1cc(n(C)n1)CSc1cc(c3ccccc3c1)OCCCc1c(C(=O)O)n(C)c3c-2c(Cl)ccc13 [AZD5991] + C1CN(CCC1(C(=O)N[C@@H](CCO)C2=CC=C(C=C2)Cl)N)C3=NC=NC4=C3C=CN4 [Capivasertib] (first compound max 1 µM, 7x7, partner max 3 µM)
5. Cc1c2c(nn1C)CSCc1cc(n(C)n1)CSc1cc(c3ccccc3c1)OCCCc1c(C(=O)O)n(C)c3c-2c(Cl)ccc13 [AZD5991] + CC(=O)O[C@H]1C(=O)[C@@]2(C)[C@H]([C@H](OC(=O)c3ccccc3)[C@]3(O)C[C@H](OC(=O)[C@H](O)[C@@H](NC(=O)c4ccccc4)c4ccccc4)C(C)=C1C3(C)C)[C@]1(OC(C)=O)CO[C@@H]1C[C@@H]2O [Paclitaxel] (first compound max 1 µM, 7x7, partner max 3 µM)

**Result**
1: -0.0353; 2: -0.0289; 3: -0.0169; 4: -0.0174; 5: -0.0142
